assay: Aqueous solubility determined gravimetrically by slurrying in water; format: physicochemical; settings: pH 7.6, thermodynamic from solid; water, 22°C, gravimetric; pH in water 7.6
Counter-ions that a name gives are not always drawn.
result-type: solubility (mg/mL)
One number for each entry, in mg/mL.

-- ask Give the measured solubility of CCCCCCCC(=O)N[C@H](CN1CCCC1)[C@H](O)c1ccc2c(c1)OCCO2 [Eliglustat hydrochloride] .
-- reply 33
